- target.system: CDK2/cyclin A2 (Homo sapiens, UniProt P24941)
- test.details: Human CDK2/cyclin A2 inhibitory activity (QS S Assist CDK2/Cyclin A2_FP Kit, IMAP fluorescent polarization)
- conditions: read-out: CDK2 Activity symbol
observation.type: IC50

[[record]]
entry_smiles = "OCCN1CCN(Cc2ccc(Nc3ncc4cc(CO)nc(N5CCCCC5)c4n3)nc2)CC1"
observation_type = "IC50"
result = "≥ 100 nM"


Which measured IC50 value corresponds to `C[C@@H](O)c1cc2cnc(Nc3ccc(CN4CCN(CCO)CC4)cn3)nc2c(N2CCC[C@@H](F)C2)n1` ? ≥ 100 nM

Which measured IC50 value corresponds to `C[C@@H](O)c1cc2cnc(Nc3ccc4c(n3)CCN(CCN(C)C)C4)nc2c(N2CCC(F)(F)CC2)n1` ? ≥ 100 nM

Which measured IC50 value corresponds to `C[C@@H](O)Cc1cc2cnc(Nc3ccc(CN4CCN(CCO)CC4)cn3)nc2c(N2CCCCC2)n1` ? ≥ 100 nM

Which measured IC50 value corresponds to `C[C@@H](O)c1cc2cnc(Nc3ccc4c(n3)CCN(C3CN(C)C3)C4)nc2c(N2CCC(C#N)CC2)n1` ? ≥ 100 nM

Which measured IC50 value corresponds to `OCCc1cc2cnc(Nc3ccc(N4CCNCC4)nn3)nc2c(N2CCCCC2)n1` ? ≥ 100 nM

Which measured IC50 value corresponds to `CCN1CCN(Cc2ccc(Nc3ncc4cc([C@@H](C)O)nc(N5CCCCC5)c4n3)nc2)CC1` ? ≥ 100 nM

Which measured IC50 value corresponds to `Cc1ccccc1-c1nc(C(F)F)cc2cnc(Nc3ccc(N4CCNCC4)cn3)nc12` ? ≥ 100 nM

Reference for the values: patent US11084814B2
